SGF Half-life (t½) reference
# measurement protocol: Intact half-life during simulated gastric fluid (SGF) digestion
# assay conditions: SGF pH 1.5, pepsin:polypeptide 1:20 w/w, 37° C.; intact protein
Give the quantity in s, number only.

Known SGF Half-life (t½) results, listed for orientation:
SEQID-00343: nutritive polypeptide (protein, Glycine max) MATLIAPSHHSRVEDAEALRNAFKGWGADDKAIIAILGHRNVHQRQEIRKAYEEIYQEDLIKRLESEISGDFERAMYRWMLQPADRDAVLVNVAIKNGTKDYHVIAEIACVLSAEELLAVRRAYHRRYKCSLEEDVAANTTGNLRQLLVGLVTSYRYEGDEINVKFSQTEANVLHESVKEKKGNSEEVIRILTTRSKTQLVATFNRYRDEHGISISKKLLDQTSDDFHKVLHTAIRCINDHKKYYEKVLRNAVKKFGTDEDGLSRVIVTRAEKDLKDIKELYYKRNSVHLEDEVSKETSGDYKKFLLTLLGK : 18
SEQID-00098: nutritive polypeptide (protein, listed as Lactococcus lactis) MAVFEKVQDIIVDELGKEKEEVTLETSFEELDADSLDLFQIINDIEDEFDVEVDTEADMKTVADLVKYVENNK : 24

I would be grateful if you could share the reported SGF Half-life (t½) for SEQID-00647: protein of the 168 nutritive polypeptide library (protein, Arthrospira platensis C1, protein of the 168 nutritive polypeptide library) MALSKIEEARQLNDDDLSEQILEIKKQLANLRLLKATGRLEKPHEIRHTRHRLSQLLTVERERQLPNQSPA . 12

Would you kindly repeat that for SEQID-00622: protein of the 168 nutritive polypeptide library (protein, listed as Oryza sativa, source: /note="subsp. japonica", protein of the 168 nutritive polypeptide library) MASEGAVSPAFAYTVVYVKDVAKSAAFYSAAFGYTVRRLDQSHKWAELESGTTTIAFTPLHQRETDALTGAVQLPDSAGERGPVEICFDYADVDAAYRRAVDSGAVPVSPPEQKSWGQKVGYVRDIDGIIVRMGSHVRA ? 396

Please give the result for SEQID-00672 (BS): nutritive polypeptide (protein, listed as Saccharomyces cerevisiae, source: /note="strain ATCC 204508 / S288c") MSSSESIRMVLIGPPGAGKGTQAPNLQERFHAAHLATGDMLRSQIAKGTQLGLEAKKIMDQGGLVSDDIMVNMIKDELTNNPACKNGFILDGFPRTIPQAEKLDQMLKEQGTPLEKAIELKVDDELLVARITGRLIHPASGRSYHKIFNPPKEDMKDDVTGEALVQRSDDNADALKKRLAAYHAQTEPIVDFYKKTGIWAGVDASQPPATVWADILNKLGKD too. 18

// repeat for SEQID-00305: nutritive polypeptide (protein, listed as Bos taurus) MPHQYPALTPEQKKELCDIAHRIVAPGKGILAADESTGSIAKRLQSIGTENTEENRRFYRQLLLTADDRVNPCIGGVILFHETLYQKADDGRPFPQVIKAKGGVVGIKVDKGVVPLAGTNGETTTQGLDGLSERCAQYKKDGADFAKWRCVLKIGEHTPSSLAIMENANVLARYASICQQNGIVPIVEPEILPDGDHDLKRCQYVTEKVLAAVYKALSDHHIYLEGTLLKPNMVTPGHACTQKYSHEEIAMATVTALRRTVPPAVPGITFLSGGQSEEEASINLNAINKCPLLKPWALTFSYGRALQASALKAWGGKKENLKAAQEEYVKRALANSLACQGKYTPSGKAGAAASESLFISNHAY and report 12

Please give the result for SEQID-00485: nutritive polypeptide naturally produced in Chickpea, recombinantly expressed in E. coli (protein, listed as Cicer arietinum) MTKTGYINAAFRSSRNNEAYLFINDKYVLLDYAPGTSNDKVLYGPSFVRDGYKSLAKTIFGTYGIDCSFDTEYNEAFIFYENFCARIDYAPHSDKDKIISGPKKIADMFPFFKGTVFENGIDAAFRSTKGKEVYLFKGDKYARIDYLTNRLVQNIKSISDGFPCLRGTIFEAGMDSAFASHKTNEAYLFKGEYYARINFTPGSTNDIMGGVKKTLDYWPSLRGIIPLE too. 30

Okay, and SEQID-00220: nutritive polypeptide (protein, listed as Bos taurus) DTKKKVDDDLGTIENLEEAKKKLLKDVEVLSQRLEEKALAYDKLEKTKTRLQQELDDLLVDLDHQ ? 30

Subsequent entry: SEQID-00241: nutritive polypeptide (protein, listed as Bos taurus) SELKKDIDDLELTLAKVEKEKHATENKVKNLTEEMAGLDETIAKLTKEKKALQEAHQQTLDDLQAEEDKVNTLTKAKTKLEQQVDDLEGSLEQEKKLRMDLERAKRKLEGDLKLA 18
